Origin of the recorded values: patent US20130261165A1

system: FoxA2; assay: FoxA2 mRNA expression by qPCR in primary ventral midbrain cultures; conditions: Mus musculus, 24 h, read-out: Fold Increase in FoxA2 Expression
Where a name gives a salt, the structure may show the parent alone.
Class definitions on fold induction at 10 µM: range A = under 2, range B = from 2 up to 3, range C = 3 and over

Check out these entries, answers already filled in.
molecule	study_system	cat
Cc1cc(=O)[nH]c(=S)[nH]1 [Methylthiouracil]	FoxA2	range B
c1ccc(CC2=NCCN2)cc1 [Tolazoline hydrochloride]	FoxA2	range B
C[C@H]1C[C@@H]2[C@H]([C@@H](O)C[C@@]3(C)[C@H]2CC[C@]3(O)C(=O)CO)[C@@]2(C)C=CC(=O)C=C12 [Methylprednisolone]	FoxA2	range A

Here is another molecule to look at.
Which fold induction at 10 µM category applies to CCN1CCCC1CNC(=O)c1cc(S(N)(=O)=O)ccc1OC (stereo not drawn) [Sulpiride] here?
range A
